Molecular target: Human recombinant FAP (Homo sapiens, UniProt Q12884)
Experiment: Surface plasmon resonance assay (Biacore T200, single cycle kinetics)
Type: binding
Details: SPR, half-life, 25°C
HL [min] (Biacore) values by entry

- compound: "CS(=O)(=O)c1cccc(-c2ccc3nccc(C(=O)NCC(=O)N4CC(F)(F)C[C@H]4C#N)c3c2)c1 [drawing 288]"
  output unit: "min"
  readout relation: "="
  HL [min] (Biacore): 29
- compound: "CS(=O)(=O)c1cccc(-c2ccc3c(C(=O)NCC(=O)N4CCC[C@H]4C#N)ccnc3c2)c1"
  output unit: "min"
  readout relation: "="
  HL [min] (Biacore): 5.7
- compound: "O=C(O)CN1CCN(CC(=O)O)CCN(CC(=O)N2CCN(CCNC(=O)c3ccc(-c4ccc5nccc(C(=O)NCC(=O)N6CCC[C@H]6C(=O)c6nc7ccccc7o6)c5c4)cc3)CC2)CCN(CC(=O)O)CC1 [drawing 354]"
  output unit: "min"
  readout relation: "="
  HL [min] (Biacore): 10.5
- compound: "CS(=O)(=O)c1ccc(-c2ccc3nccc(C(=O)NCC(=O)N4CC(F)(F)C[C@H]4C#N)c3c2)cc1"
  output unit: "min"
  readout relation: "="
  HL [min] (Biacore): 125
- compound: "N#C[C@@H]1CCCN1C(=O)CNC(=O)c1ccnc2ccc(-c3ccc(C(=O)NCCCN(CC(=O)O)C(=O)CN4CCN(CC(=O)O)CCN(CC(=O)O)CCN(CC(=O)O)CC4)cc3)cc12"
  output unit: "min"
  readout relation: ">"
  HL [min] (Biacore): 500
- compound: "N#C[C@@H]1CC(F)(F)CN1C(=O)CNC(=O)c1ccnc2ccc(-c3ccc(S(=O)(=O)CCCNC(=O)CN4CCN(CC(=O)O)CCN(CC(=O)O)CCN(CC(=O)O)CC4)cc3)cc12"
  output unit: "min"
  readout relation: ">"
  HL [min] (Biacore): 500

* * *

pKD (Biacore) values, listed per item
Molecular target: Human recombinant FAP (Homo sapiens, UniProt Q12884)
Assay: Surface plasmon resonance assay (Biacore T200, single cycle kinetics)
Format: binding
Settings: SPR, 25°C, 1:1 Langmuir binding model

- structure smiles: "CS(=O)(=O)c1ccc(-c2ccc3c(C(=O)NCC(=O)N4CC(F)(F)C[C@H]4C#N)ccnc3c2)cc1"
  pKD (Biacore): 10
- structure smiles: "N#C[C@@H]1CC(F)(F)CN1C(=O)CNC(=O)c1ccnc2ccc(-c3ccc(C(=O)NCCN4CCN(C(=O)CN5CCN(CC(=O)O)CCN(CC(=O)O)CCN(CC(=O)O)CC5)CC4)cc3)cc12"
  pKD (Biacore): ">11"
- structure smiles: "N#C[C@@H]1CC(F)(F)CN1C(=O)CNC(=O)c1ccnc2ccc(-c3ccc(C(=O)NCCCNC(=O)CN4CCN(CC(=O)O)CCN(CC(=O)O)CCN(CC(=O)O)CC4)cc3)cc12"
  pKD (Biacore): ">11"

* * *

Molecular target: FAP-expressing human WI-38 fibroblasts (Homo sapiens)
Sequence (Q12884 whole entry): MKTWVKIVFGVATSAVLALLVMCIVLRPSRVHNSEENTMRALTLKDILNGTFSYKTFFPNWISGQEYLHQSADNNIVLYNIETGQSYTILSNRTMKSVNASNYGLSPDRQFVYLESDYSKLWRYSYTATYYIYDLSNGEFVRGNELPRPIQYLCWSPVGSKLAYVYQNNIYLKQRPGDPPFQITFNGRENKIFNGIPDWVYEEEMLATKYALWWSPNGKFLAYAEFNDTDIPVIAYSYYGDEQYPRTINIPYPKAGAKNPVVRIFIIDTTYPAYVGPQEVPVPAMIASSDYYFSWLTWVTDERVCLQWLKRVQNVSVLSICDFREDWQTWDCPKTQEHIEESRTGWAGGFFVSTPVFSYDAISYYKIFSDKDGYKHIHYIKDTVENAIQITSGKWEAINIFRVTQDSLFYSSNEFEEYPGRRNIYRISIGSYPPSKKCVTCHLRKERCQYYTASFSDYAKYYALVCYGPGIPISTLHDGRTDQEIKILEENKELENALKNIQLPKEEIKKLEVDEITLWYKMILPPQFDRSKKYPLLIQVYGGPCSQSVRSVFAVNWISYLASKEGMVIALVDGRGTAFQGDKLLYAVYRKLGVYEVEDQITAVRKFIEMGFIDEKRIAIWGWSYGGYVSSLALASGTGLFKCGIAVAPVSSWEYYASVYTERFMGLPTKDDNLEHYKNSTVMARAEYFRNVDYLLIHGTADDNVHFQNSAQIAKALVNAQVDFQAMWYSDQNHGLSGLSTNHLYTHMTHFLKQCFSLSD
pIC50: −log10 of the molar value.
Property: pIC50; scope: individual compounds
measure name: pIC50

- compound: "CS(=O)(=O)c1ccc(-c2ccc3nccc(C(=O)NCC(=O)N4CCC[C@H]4C#N)c3c2)cc1"
  readout relation: "="
  readout value: 8.40
- compound: "Cn1ncnc1C(=O)[C@@H]1CCCN1C(=O)CNC(=O)c1ccnc2ccccc12"
  readout relation: "<"
  readout value: 6.00
- compound: "CC(C)(C)c1nnc(C(=O)[C@@H]2CCCN2C(=O)CNC(=O)c2ccnc3ccccc23)o1"
  readout relation: "="
  readout value: 7.80
- compound: "CS(=O)(=O)c1cccc(-c2ccc3nccc(C(=O)NCC(=O)N4CCC[C@H]4C#N)c3c2)c1"
  readout relation: "="
  readout value: 8.40
- compound: "CS(=O)(=O)c1cccc(-c2ccc3c(C(=O)NCC(=O)N4CC(F)(F)C[C@H]4C#N)ccnc3c2)c1 [drawing 289]"
  readout relation: "="
  readout value: 8.70
- compound: "Cc1cccc2c(C(=O)NCC(=O)N3CC(F)(F)C[C@H]3C#N)ccnc12"
  readout relation: "="
  readout value: 7.60

* * *

Molecular target: HEK-FAP cells (Homo sapiens)
Construct: expressed in transfected cells; host or cells: HEK293
Assay: LigandTracer assay with 111In-labeled compounds
Type: binding
Conditions: 111In-labeled compound, association rate, read-out: ka
Recorded kon for the following compounds

- compound: "O=C(O)CN1CCN(CC(=O)O)CCN(CC(=O)N2CCN(CCNC(=O)c3cccc(-c4ccc5nccc(C(=O)NCC(=O)N6CCC[C@H]6C(=O)c6nc7ccccc7o6)c5c4)c3)CC2)CCN(CC(=O)O)CC1 [Compound 3BP-4664]"
  kon / M⁻¹ s⁻¹: 160000
- compound: "O=C(O)CN1CCN(CC(=O)O)CCN(CC(=O)N2CCN(CCCOc3ccc4nccc(C(=O)NCC(=O)N5CCC[C@H]5C(=O)c5nc6ccccc6o5)c4c3)CC2)CCN(CC(=O)O)CC1 [Compound 3BP-4808]"
  kon / M⁻¹ s⁻¹: 94000
- compound: "O=C(O)CN1CCN(CC(=O)O)CCN(CC(=O)N2CCN(CCNC(=O)c3ccc(-c4ccc5nccc(C(=O)NCC(=O)N6CCC[C@H]6C(=O)c6nc7ccccc7o6)c5c4)cc3)CC2)CCN(CC(=O)O)CC1 [Compound 3BP-4663]"
  kon / M⁻¹ s⁻¹: 150000
- compound: "O=C(O)CN1CCN(CC(=O)O)CCN(CC(=O)N2CCN(CCNC(=O)c3cccc(-c4ccc5c(C(=O)NCC(=O)N6CCC[C@H]6C(=O)c6nc7ccccc7o6)ccnc5c4)c3)CC2)CCN(CC(=O)O)CC1 [Compound 3BP-4694]"
  kon / M⁻¹ s⁻¹: 57000
- compound: "O=C(O)CN1CCN(CC(=O)O)CCN(CC(=O)N2CCN(CCNC(=O)c3ccc(-c4ccc5c(C(=O)NCC(=O)N6CCC[C@H]6C(=O)c6nc7ccccc7o6)ccnc5c4)cc3)CC2)CCN(CC(=O)O)CC1 [Compound 3BP-4665]"
  kon / M⁻¹ s⁻¹: 220000

* * *

Molecular target: Human recombinant FAP (Homo sapiens, UniProt Q12884)
Assay: Surface plasmon resonance assay (Biacore T200, single cycle kinetics)
Format: binding
Conditions: SPR, half-life, 25°C
measure name: HL [min] (Biacore) (min)

- molecule: "CS(=O)(=O)c1ccc(-c2ccc3c(C(=O)NCC(=O)N4CCC[C@H]4C#N)ccnc3c2)cc1 [drawing 290]"
  readout relation: "="
  readout value: 4
- molecule: "N#C[C@@H]1CCCN1C(=O)CNC(=O)c1ccnc2ccc(-c3ccc(C(=O)O)cc3)cc12"
  readout relation: "="
  readout value: 11
- molecule: "CS(=O)(=O)c1ccc(-c2ccc3c(C(=O)NCC(=O)N4CC(F)(F)C[C@H]4C#N)ccnc3c2)cc1"
  readout relation: "="
  readout value: 37
- molecule: "O=C(O)CN1CCN(CC(=O)O)CCN(CC(=O)N2CCN(CCCOc3ccc4nccc(C(=O)NCC(=O)N5C[C@@H](F)C[C@H]5C(=O)c5nc6ccccc6o5)c4c3)CC2)CCN(CC(=O)O)CC1 [drawing 358]"
  readout relation: ">"
  readout value: 500

* * *

Molecular target: HEK-FAP cells (Homo sapiens, UniProt Q12884)
Construct: expressed in transfected cells; host or cells: HEK293
Sequence (Q12884 whole entry): as above
Assay: LigandTracer assay with 111In-labeled compounds
Type: binding
Conditions: 111In-labeled compound

- compound: "O=C(O)CN1CCN(CC(=O)O)CCN(CC(=O)N2CCN(CCNC(=O)c3cccc(-c4ccc5c(C(=O)NCC(=O)N6CCC[C@H]6C(=O)c6nc7ccccc7o6)ccnc5c4)c3)CC2)CCN(CC(=O)O)CC1"
  measured on: "HEK-FAP cells (Homo sapiens, UniProt Q12884)"
  HL (min): 3946
- compound: "CN(CCCN1CCN(C(=O)CN2CCN(CC(=O)O)CCN(CC(O)O)CCN(CC(=O)O)CC2)CC1)c1ccc2nccc(C(=O)NCC(=O)N3CC(F)(F)C[C@H]3C#N)c2c1 [Compound 3BP-4200, reference compound]"
  measured on: "HEK-FAP cells (Homo sapiens, UniProt Q12884)"
  HL (min): 1798
- compound: "O=C(O)CN1CCN(CC(=O)O)CCN(CC(=O)N2CCN(CCCOc3ccc4nccc(C(=O)NCC(=O)N5CCC[C@H]5C(=O)c5nc6ccccc6o5)c4c3)CC2)CCN(CC(=O)O)CC1"
  measured on: "HEK-FAP cells (Homo sapiens, UniProt Q12884)"
  HL (min): 20

* * *

Target: HEK-FAP cells (Homo sapiens, UniProt Q12884)
Construct: expressed in transfected cells; host or cells: HEK293
Test: LigandTracer assay with 111In-labeled compounds
Assay type: binding
Conditions: 111In-labeled compound

- compound: "N#C[C@@H]1CC(F)(F)CN1C(=O)CNC(=O)c1ccnc2ccc(OCCCN3CCN(C(=O)CN4CCN(CC(=O)O)CCN(CC(=O)O)CCN(CC(=O)O)CC4)CC3)cc12 [Compound 3BP-2929, reference compound]"
  HL, min: 276
- compound: "O=C(O)CN1CCN(CC(=O)O)CCN(CC(=O)NCCCS(=O)(=O)c2ccc(-c3ccc4nccc(C(=O)NCC(=O)N5CCC[C@H]5C(=O)c5nc6ccccc6o5)c4c3)cc2)CCN(CC(=O)O)CC1 [Compound 3BP-3581]"
  HL, min: 345
- compound: "O=C(O)CN1CCN(CC(=O)O)CCN(CC(=O)N2CCN(CCNC(=O)c3ccc(-c4ccc5c(C(=O)NCC(=O)N6CCC[C@H]6C(=O)c6nc7ccccc7o6)ccnc5c4)cc3)CC2)CCN(CC(=O)O)CC1 [Compound 3BP-4665]"
  HL, min: 22
- compound: "O=C(O)CN1CCN(CC(=O)O)CCN(CC(=O)N2CCN(CCNC(=O)c3ccc(-c4ccc5nccc(C(=O)NCC(=O)N6CCC[C@H]6C(=O)c6nc7ccccc7o6)c5c4)cn3)CC2)CCN(CC(=O)O)CC1 [Compound 3BP-4811]"
  HL, min: 27
